# assay.name: Half life in dog liver S9 fraction at 1 uM in presence of NADPH incubated upto 120 mins by LC-MS/MS analysis
# Format: ADME, subcellular, Canis lupus familiaris
measurement.label: half-life at 1 µM (min)
Entry rule: numbers only, all in min.

*Q* Any idea what half-life at 1 µM was measured for COCCOc1cc(NC(=O)N2CCCc3cc(CN4CCN(C)CC4=O)c(C=O)nc32)ncc1C#N ?
*A* 52

---

# assay.name: Clearance in Beagle dog at 0.1 mg/kg, iv or 0.3 mg/kg, po by LC-MS/MS analysis
# Type: ADME, organism-based, Canis lupus familiaris
# run.conditions: in vivo
measurement.label: clearance (mL/min/kg)
Quick reminder: number only, in mL/min/kg, skip the unit.

*Q* Reported clearance, compound COCCOc1cc(NC(=O)N2CCCc3cc(CN4CCN(C)CC4=O)c(C=O)nc32)ncc1C#N : ____
*A* 8
